Listed next: entries and their corresponding solubility kinetic.
Assay: Kinetic solubility in simulated gastric fluid
Format: physicochemical
Conditions: read-out: Kinetic_solubility
Answer with a number only, understood to be in µM.

Reference set, count: 4
O=C1C2CCC(C2)N1CC(O)Cn1c2ccc(F)cc2c2cc(F)ccc21 (stereo not drawn)    168
O=C1NCCN1CC(O)Cn1c2ccc(F)cc2c2cc(F)ccc21 (stereo not drawn)    142
CN1CCCN(CC(O)Cn2c3ccc(F)cc3c3cc(F)ccc32)C1=O (stereo not drawn)    162
O=C1CCCN1CC(O)Cn1c2ccc(F)cc2c2cc(F)ccc21 (stereo not drawn)    148

Identify measured solubility kinetic corresponding to O=C1C(F)CCN1CC(O)Cn1c2ccc(F)cc2c2cc(F)ccc21 (stereo not drawn)
184

Identify measured solubility kinetic corresponding to COC1CCCN(CC(O)Cn2c3ccc(F)cc3c3cc(F)ccc32)C1=O (stereo not drawn)
188

Identify measured solubility kinetic corresponding to CC1CN(CC(O)Cn2c3ccc(F)cc3c3cc(F)ccc32)C(=O)N1 (stereo not drawn)
181

Identify measured solubility kinetic corresponding to O=C1NCCCN1CC(O)Cn1c2ccc(F)cc2c2cc(F)ccc21 (stereo not drawn)
85.6
